TARGET_SYSTEM: human Adenosine A2a receptor (Homo sapiens (Human), UniProt P29274)
Sequence (P29274 whole entry): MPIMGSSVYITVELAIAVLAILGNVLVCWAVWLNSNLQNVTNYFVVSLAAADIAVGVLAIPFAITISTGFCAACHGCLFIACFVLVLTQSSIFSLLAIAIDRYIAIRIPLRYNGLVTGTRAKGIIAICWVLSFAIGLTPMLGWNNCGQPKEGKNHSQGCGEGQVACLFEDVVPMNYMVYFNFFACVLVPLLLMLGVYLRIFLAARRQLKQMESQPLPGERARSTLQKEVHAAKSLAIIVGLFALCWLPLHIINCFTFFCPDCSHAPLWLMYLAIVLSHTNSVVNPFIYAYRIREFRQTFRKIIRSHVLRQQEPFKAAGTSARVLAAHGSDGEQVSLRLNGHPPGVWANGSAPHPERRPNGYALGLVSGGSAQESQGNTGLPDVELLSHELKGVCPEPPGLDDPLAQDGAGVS
ASSAY: Adenosine receptor TR-FRET binding assay (A2a)
RUN_PARAMETERS: inhibition of binding of 100 nM CA200645, CHO cell membranes
// map Ki to label using Low = under 0.4 nM, Mid = from 0.4 nM up to 4 nM, High = 4 nM and over

Cc1cc(-c2sc(NC(=O)N3CCC(C(=O)NCCO)CC3)nc2-c2cccc(C#N)c2)cc(C)n1 [Example 6.33]; Mid
Cc1cc(-c2sc(NC(=O)N3CCN(CCO)C(=O)C3)nc2-c2cccc(C#N)c2)cc(C)n1 [Example 4.31]; Mid
Cc1cc(-c2sc(NC(=O)N3CC(=O)N[C@@H](C)C3)nc2-c2cccc(C#N)c2)cc(C)n1 [Example 6.90]; Mid
COCC1(C#N)CCN(C(=O)Nc2nc(-c3cccc(C#N)c3)c(-c3cc(C)nc(C)c3)s2)CC1 [Example 4.6]; Low
Cc1cc(-c2sc(NC(=O)N3CCC4(CC3)CN(C)C(=O)O4)nc2-c2cccc(C#N)c2)cc(C)n1 [Example 6.12]; Low
Cc1cc(-c2sc(NC(=O)N3CC[C@@H]3C(C)(C)O)nc2-c2cccc(C#N)c2)cc(C)n1 [Example 6.83]; High
Cc1cc(-c2sc(NC(=O)N3CC[C@@H](C(=O)O)C3)nc2-c2cccc(C#N)c2)cc(C)n1 [Example 6.65]; High
Cc1cc(-c2sc(NC(=O)N3CCC4(CC3)NC(=O)N(C)C4=O)nc2-c2cccc(C#N)c2)cc(C)n1 [Example 6.6]; Mid
Cc1cc(-c2sc(NC(=O)N3CC[C@@H](C(C)(C)O)C3)nc2-c2cccc(C#N)c2)cc(C)n1 [Example 6.36]; Mid
Cc1cc(-c2sc(NC(=O)N3CCC[C@@H]3C(C)(C)O)nc2-c2cccc(C#N)c2)cc(Cl)n1 [Example 3]; High
Cc1cc(-c2sc(NC(=O)N3CCN4C(=O)CCC4C3)nc2-c2cccc(C#N)c2)cc(C)n1 (stereo not drawn) [Example 6.18]; Low
Cc1cc(-c2sc(NC(=O)N3CCC(C)(C#N)CC3)nc2-c2cccc(C#N)c2)cc(CO)n1 [Example 24]; Low
Cc1cc(-c2sc(NC(=O)N3CCC(N4CCNC4=O)CC3)nc2-c2cccc(C#N)c2)cc(C)n1 [Example 6.30]; Mid
